# Test system: CCKB receptor (guinea pig cerebral cortex)
# Assay summary: 125I-CCK-8 receptor binding assay, CCKB
# Measurement context: ratio CCKB/CCKA
Parameter: Selectivity
Respond with the number and no other words.

Could you tell me which Selectivity is on file for C#CCOC1OC(=O)C(Cl)=C1N(C(C)C)C1CCCCC1 (centres unmarked) ?
1.3

Could you tell me which Selectivity is on file for CC(C)CNC1=C(Cl)C(=O)OC1c1ccccc1 (centres unmarked) ?
1.6

Could you tell me which Selectivity is on file for CCCCCCNC1=C(Cl)C(=O)OC1OC (centres unmarked) ?
1.5

Could you tell me which Selectivity is on file for CCN(C1=C(Cl)C(=O)OC1CC(=O)c1ccc(Cl)cc1)c1cccc(C)c1 (centres unmarked) ?
2.3

Could you tell me which Selectivity is on file for C#CCOC1OC(=O)C(Cl)=C1NCc1ccccc1 (centres unmarked) ?
1.5
